- Experiment: NCI Yeast Anticancer Drug Screen. Data for the mlh1 rad18 strain (AID 175)
- Details: S. cerevisiae mlh1 rad18 strain growth inhibition; at 50.0 µM; hits give high values
About 79,000 compounds went through this panel and 15% of them were active in at least one assay; those are over-represented in the sample as a whole.
Attribute: growth inhibition
Test readout: growth inhibition (%)

> print(dat)
                                    compound       test.readout  result.value
 1  CCOc1c(Cc2ccccc2)c(=O)n2c3ccccc3n(CC)c2c1C#N  growth inhibition         -10.8
 2       Cc1n(CC(=O)c2ccccc2)nc2sc(N)n[n+]12  growth inhibition         -20.9
 3  Cc1ccc(/C([O-])=C(/C(=S)Nc2ccccc2)[n+]2ccccc2)cc1  growth inhibition          13.1
 4  O=C(O)c1ccccc1NC(C(=O)O)c1ccccc1 (centres undefined)  growth inhibition         -11.7
 5                       ClCCOc1ccc2ccccc2c1  growth inhibition          12.1
 6  CCCCNC(=O)c1cc(S(=O)(=O)n2cc[nH]c2=O)c(SC)cc1Cl  growth inhibition          31.2
 7  CC(C(=O)O)/C(=C\c1ccccc1)C(=O)O (centres undefined)  growth inhibition          11.4
 8     O=C(O)c1ccc(-n2cnc3c(=O)[nH]cnc32)cc1  growth inhibition         -7.85
 9  COc1ccc(/C=N\O[Si](C)(C)C(C)(C)C)cc1O[Si](C)(C)C(C)(C)C  growth inhibition          15.8
10                 CN(/N=C/c1ccccn1)C1=NCCN1  growth inhibition         -21.4
11      CC(C)(C)NC(=O)Oc1ccc(-c2ccccc2)cc1Cl  growth inhibition          99.3
12  CC1C(c2ccccc2O)c2cc3c(cc2OC1N1CCOCC1)OCO3 (centres undefined)  growth inhibition         -29.1
13  Cc1ccc(S(=O)(=O)N/N=C(/c2ccccc2)c2ccsc2C)cc1  growth inhibition          53.4
14  CCOC(=O)CC1(c2ccccc2)OC(=O)c2ccccc21 (centres undefined)  growth inhibition         -11.2
15  O=C1C=C(CCC2=CC(=O)c3ccccc3C2=O)C(=O)c2ccccc21  growth inhibition         -28.6
16  O=c1c(-c2ccccc2)c2oc(c1-c1ccccc1)CSCc1cccc(c1)CSC2  growth inhibition           7.8
17         COc1ccc2[nH]c(Br)c(CCNC(C)=O)c2c1  growth inhibition         -31.9
18  C=C1C(=O)O[C@H]2[C@H]1[C@H](OC(=O)/C(C)=C\C)CC(=C)[C@@H]1[C@H](O)[C@H]3O[C@@]3(C)[C@@]12O  growth inhibition           -18
19  C=CCOCC(COC(=O)CCCCCCCCCCCCCCCCC)OCC=C (centres undefined)  growth inhibition           6.5
20   CC(C)(C)/C=C/N=NNc1ccccc1C(=O)NC(C)(C)C  growth inhibition          12.1
21                  N#Cc1ccc(NN=NCCCCCCl)cc1  growth inhibition          1.55
22  COc1ccccc1C(CC(=O)c1ccccc1)Sc1ccccc1N (centres undefined)  growth inhibition          12.3
23  CCCOC(=O)C(O)Cc1ccccc1 (centres undefined)  growth inhibition         -34.3
24  CC12O[C@H](c3ccccc3)[C@H](c3ccccc3)N1C(=O)C1(C(=O)OCc3ccccc3)CC12 (some centres undefined)  growth inhibition         -3.45
25                 CCOc1ccc([N+](=O)[O-])cc1  growth inhibition         -31.9
26             c1ccc(Cn2nnc(-c3ccccc3)n2)cc1  growth inhibition          18.4
27  Nc1ccc(N(S(=O)(=O)c2ccccc2)S(=O)(=O)c2ccccc2)nc1  growth inhibition          17.7
28         Fc1ccc(C(Nc2nncs2)Nc2nncs2)c(F)c1  growth inhibition           9.7
29                    Cc1ncc(C(=O)O)c(CO)c1N  growth inhibition           4.8
30  COC(=O)N/N=C(\C)c1sc(-c2nc(C)c(/C(C)=N/NC(=O)OC)s2)nc1C  growth inhibition          1.05
31                       CN(C(=O)Cl)c1ccccc1  growth inhibition          16.8
32  Cc1ccc(N=Nc2ccc(C)cc2NC(=O)c2ccc(Cl)cc2Cl)cc1  growth inhibition          18.2
33           Cc1c(Cl)c2ccc(N(C)C)cc2[nH]c1=O  growth inhibition          7.65
34             CC1=CC(=C(C#N)C#N)c2ccccc2N1C  growth inhibition          1.85
35   CCC(C(N)=O)C(C)(C)C (centres undefined)  growth inhibition          -1.2
36  Nc1ncnc2c1[nH]c(=S)n2C1OC(CO)C(O)C1O (centres undefined)  growth inhibition          0.15
37  CCCCCCCCCCCCCCCCCCNC1=C(C)C(=O)C(NCCCCCCCCCCCCCCCCCC)=C(OCC)C1=O  growth inhibition          -9.5
38  O=C(CCC(O)c1ccccc1)c1ccccc1 (centres undefined)  growth inhibition          2.35
39            O=C(N/N=C\c1cccc(O)c1)c1ccncc1  growth inhibition         -1.05
40            Cc1cc(Br)c(I)c([N+](=O)[O-])c1  growth inhibition          6.25
41  COc1ccc2c(c1)C(N)CC2=O (centres undefined)  growth inhibition         -12.9
42  CSc1nc2c(c(=O)[nH]1)N=C(c1ccccc1)CC(c1ccccc1)N2 (centres undefined)  growth inhibition         -5.85
43  COC(=O)CCC(CCC(=O)O)([N+](=O)[O-])[N+](=O)[O-]  growth inhibition         -11.8
44                           Nc1c[nH]c(=S)s1  growth inhibition          51.2
45           O=c1cc(CSc2ncnc3nc[nH]c23)occ1O  growth inhibition           4.2
46  Cc1c(Cl)cccc1NC(=O)C(=O)C1C(=O)CC(C)(C)CC1=O  growth inhibition          18.8
47                 CC(=O)CCCCCCCCCCCCCC(C)=O  growth inhibition            -6
48              COc1ccc(C(=O)c2ccccc2C)cc1OC  growth inhibition          0.15
49                  N=C(N)n1ncc(Cl)c(Cl)c1=O  growth inhibition          41.5

----------
- Experiment: NCI Yeast Anticancer Drug Screen. Data for the bub3 strain (AID 167)
- Details: S. cerevisiae bub3 mutant strain, at 50.0 µM, hits give high values
Compounds without any hit were thinned out: in the full panel of roughly 79,000, 15% have a hit.
Attribute: growth inhibition

Compound	growth inhibition, %
CC1C2=C(CC(C)(C)CC2=O)OC2=C1C(=O)CC(C)(C)C2	4.65
OCCOc1ccccc1-c1ccccc1	-29.5
N#C/C(=C/N1C(=O)CC(=O)NC1=S)c1cccc(Cl)c1	-28.8
Cc1nc(C(N)=S)sc1C(=O)/C=C/c1c(O)ccc2ccccc12	31.1
C/C=C(/C)C(=O)OC1CC(C)=CC(OC(=O)/C(C)=C\C)[C@]2(C)C1[C@](O)(C(C)C)C[C@H]2OC(C)=O (some centres not stated)	24.9
O=c1[nH]c2cc([N+](=O)[O-])ccc2c2ccc(Cl)cc12	6.5
O=C1C=C(N2CCCC2)c2ccccc21	-27.6
NC(=S)N/N=C\c1ncccc1OCc1cccc(N)c1	37.4
CC(C)(C)Oc1cc(F)c(C(C)(C)C)cc1C(C)(C)C	0.05
CN(C)CCCNc1nnc(NCCCN(C)C)c2[nH]cnc12	6.5
CCOc1ccccc1C(=O)Nc1cc(Cl)ccc1Cl	-15.1
Cc1ccc(C(C)C)c(OC(=O)NCCCCCCNC(=O)Oc2cc(C)ccc2C(C)C)c1	-7.2
CCOC(=O)OC1CC2CC(OC(=O)OCC)c3cccc(Br)c3C2c2ccccc21 (configuration not stated)	-5.3
CCOC(=O)NC(=O)c1cn(CCN2CCN(C(=O)NCCCCCCNC(=O)N3CCN(CCn4cc(C(=O)NC(=O)OCC)c(=O)n(CCN(CC)CC)c4=O)CC3)CC2)c(=O)n(CCC(CC)CC)c1=O	2.5
Cc1ccc(Cl)cc1NS(=O)(=O)c1ccccc1	-22.8
OC(c1cc(C2CCCCC2)nc2ccccc12)C1CCCCN1 (configuration not stated)	-5.7
CC(=O)NC1=C(C)C(=O)c2c(nc3n2CCC3OC(=O)c2ccccc2)C1=N (configuration not stated)	26.9
CC1(C)CC23C4COC(=O)C2CCC1C3CC4=O (configuration not stated)	-0.25
CC(=O)OCC1OC(n2cnc3c(N)ncnc32)C(Nc2ccc([N+](=O)[O-])cc2[N+](=O)[O-])C(OC(C)=O)C1OC(C)=O (configuration not stated)	3.45
C=C(CO)[C@H]1Oc2ccc(C(C)=O)cc2[C@@H]1O	-10.7
CCO/N=C(/N)c1ncn(Cc2ccccc2)c1NCC(OCC)OCC	-1
CC1(O)CCC(O)CC1CC[N+](C)(C)[O-] (configuration not stated)	3.3
